B1: TPR t1 (parent)
chain: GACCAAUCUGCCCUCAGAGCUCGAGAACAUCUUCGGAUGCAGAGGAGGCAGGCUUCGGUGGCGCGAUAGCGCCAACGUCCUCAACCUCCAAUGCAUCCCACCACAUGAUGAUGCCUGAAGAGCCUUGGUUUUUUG

Variants of: B1
Procedure summary: polymerase ribozyme fitness, log enrichment relative to wild type (log ratio); higher = more active; in vitro selection for triplet polymerase activity
Give yes (1) when the value for polymerase ribozyme fitness (log ratio) is at least -2. Give no (0) when it is less.

Mutation	Class label
U9C C53G A105U	yes (1)
C62G G117A U129G	no (0)
U7G G51C U55C	no (0)
C11U G52A A118G	yes (1)
C20A C72A C101A	no (0)
G44C C80U C88A	no (0)
G52A A84U C101U U106G U132A	yes (1)
A37G C88G	no (0)
G52U C73G U112A G120A C124A U126A	yes (1)
G69C A75G	no (0)
G44A C56A	yes (1)

Reference for the values: the RNAGym collection of RNA variant scans (doi:10.1073/pnas.2313332121)
